Test system: U2OS
Assay: Multiplex assay against U2OS
Type: toxicity, cell-based
Details: human, 48 h, 1 µM, compound concentration 1 uM, replicate 2
Assay Metric: Population Mitochondria Different-Phenotype (%)

1) CC1=C(C(=O)Nc2cc3cn[nH]c3cc2F)C(c2ccc(C(F)(F)F)cc2)CC(=O)N1 (stereo not given)
18
2) CNC(=O)Nc1ccc(-c2nc(N3CC4CCC(C3)O4)c3cnn(C4CCC5(CC4)OCCO5)c3n2)cc1
14
3) COc1cc2ncn(-c3cc(OCc4ccccc4C(F)(F)F)c(C(N)=O)s3)c2cc1OC [GW843682X]
37
4) C[C@]12CC[C@@H]3c4ccc(O)cc4CC[C@H]3[C@@H]1CC[C@@H]2O [ESTRADIOL]
14
5) Cc1ccc2c(c1)c1c(n2CCc2ccc(C)nc2)CCN(C)C1 [LATREPIRDINE]
8
6) COc1ccc(-c2ccc3ncc4c(c3c2)n(-c2ccc(N3CCNCC3)c(C(F)(F)F)c2)c(=O)n4C)cn1.O=C(O)/C=C\C(=O)O [BGT-226]
90
7) CC(C)NC(=O)N1CC[C@H](NC2=Nc3cc(F)ccc3N(CC(F)F)c3ccc(Cl)cc32)C1
26
8) Cc1cccc(CN2CCN(C(c3ccccc3)c3ccc(Cl)cc3)CC2)c1.Cl.Cl (stereo not given)
16
9) Cc1c[nH]c2nccc(Oc3c(F)cc(Nc4cc(Cl)nc(N)n4)cc3F)c12 [BAY-549]
20
10) O=C(c1cc2c(cc1F)OC(c1ccc(F)cc1)(c1ccc(Cl)cc1Cl)O2)N1CCOCC1 (stereo not given)
13

Sourced from ChEMBL document CHEMBL4689842
